Molecular target: IRAK3 (Homo sapiens)
Construct: IRAK Endogenous HTRF Degradation Assay; endogenous in cells
Assay: IRAK endogenous HTRF degradation assay (Total-IRAK3 HTRF kit)
Format: cell-based
Conditions: overnight incubation, lowest percentage of protein remaining
experimental endpoint: IRAK3 HTRF degradation Ymin (%)

# annotated cases, reported IRAK3 HTRF degradation Ymin shown
Cc1cc(-c2cnc(Nc3cnn(C4CCN(CCN5[C@@H](C)CN(c6ccc(C7CCC(=O)NC7=O)cc6)C[C@@H]5C)CC4)c3)c3nccn23)c(F)cc1F (some centres unmarked) [Compound 56] :: 8.6
Cc1cc(-c2cnc(Nc3cnn(C4CCN(CCN5CCN(c6ccc([C@@]7(C)CCC(=O)NC7=O)cc6)CC5)CC4)c3)c3nccn23)c(F)cc1F [Compound 77] :: 8.3

P = Cc1cc(-c2cnc(Nc3cnn(C4CCN(CCN5CCN(c6cccc7c(C8CCC(=O)NC8=O)nn(C)c67)CC5)CC4)c3)c3nccn23)c(F)cc1F (centres unmarked) [Compound 41]
Q = Cc1cc(-c2cnc(Nc3cnn(C4CCN(CCN5CCN(c6ccc(C7CCC(=O)NC7=O)cc6)C[C@H]5C)CC4)c3)c3nccn23)c(F)cc1F (some centres unmarked) [Compound 9]
R = Cc1cc(-c2cnc(Nc3cnn(C4CCN(CC(=O)N5CCN(c6ccc7c(c6)C(=O)N(C6CCC(=O)NC6=O)C7)CC5)CC4)c3)c3nccn23)c(F)cc1F (centres unmarked) [Compound 18]
**Q:** Sort entries by IRAK3 HTRF degradation Ymin from minimum to maximum value. Give your ranking as a list of the labels in the requested order.
**A:** P, Q, R
(P: 8.7%, Q: 14%, R: 20%)

----------
Target: IRAK3-ePL (Homo sapiens)
Construct: expressed in transfected cells; host or cells: 293T CRBN OE/GSPT1 G575N KI cells, lentiviral transduction, puromycin selected
Experiment: IRAK3-ePL overexpressing degradation assay (InCELL Hunter luminescence, dose response)
Type: cell-based
Conditions: read-out: IRAK3 ePL degradation EC50
experimental endpoint: DC50 (nM)

Cc1cc(-c2cnc(Nc3cnn([C@@H]4CCN(CCN5CCN(c6ccc(C7CCC(=O)NC7=O)cc6)CC5)[C@H](C)C4)c3)c3nccn23)c(F)cc1F (stereo partly drawn) :: 0.51
Cc1cc(-c2cnc(Nc3cnn([C@H]4C[C@H](CCN5CCN(c6ccc(C7CCC(=O)NC7=O)cc6)CC5)C4)c3)c3nccn23)c(F)cc1F (stereo partly drawn) :: 9.6
Cc1cc(-c2cnc(Nc3cnn(C4CCN(CCN5CCN(c6ccc(C7CCC(=O)NC7=O)cc6)C[C@H]5C)CC4)c3)c3nccn23)c(F)cc1F (stereo partly drawn) :: 0.5

----------
Biological target: IRAK3-ePL (Homo sapiens, UniProt Q9Y616)
Construct: expressed in transfected cells; host or cells: 293T CRBN OE/GSPT1 G575N KI cells, lentiviral transduction, puromycin selected
Experiment: IRAK3-ePL overexpressing degradation assay (InCELL Hunter luminescence, dose response)
Type: cell-based
Settings: read-out: IRAK3 ePL degradation EC50
experimental endpoint: DC50 (nM)

// below: answered molecules
O=C1CCC(c2ccc(N3CCN(CC[C@H]4CC[C@H](n5cc(Nc6ncc(C7CC7)n7ccnc67)cn5)CC4)CC3)cc2)C(=O)N1 (stereo partly drawn) :: 0.61
Cc1cccc(-c2cnc(Nc3cnn(C4CCN(CCCN5CCN(c6ccc(C7CCC(=O)NC7=O)cc6)CC5)CC4)c3)c3nccn23)c1 (stereo not drawn) :: 4

A = Cc1cc(-c2ccc(Nc3cnn(C4CCN(CCN5CCN(c6ccc(C7CCC(=O)NC7=O)cc6)CC5)CC4)c3)c3nccn23)c(F)cc1F (stereo not drawn)
B = Cc1cc(-c2cnc(Nc3cnn([C@H]4CCN(CCN5CCN(c6ccc(C7CCC(=O)NC7=O)cc6)CC5)C[C@@H]4F)c3)c3nccn23)c(F)cc1F (stereo partly drawn)
C = Cc1cc(-c2cnc(Nc3cnn(C4CCN(CCN5CCN(c6ccc(C7CCC(=O)NC7=O)cc6)[C@H](C)C5)CC4)c3)c3nccn23)c(F)cc1F (stereo partly drawn)
D = Cc1cc(-c2cnc(Nc3cnn(C4CCN(CCN5CCN(c6ccc(C7CCC(=O)NC7=O)cc6)CC5)CC4)c3)c3ncc(C)n23)c(F)cc1F (stereo not drawn)
**Q:** Order the 4 molecules from highest to lowest DC50. To answer, arrange all of the labels according to the requested order.
**A:** D, A, C, B
(D: 18 nM, A: 3 nM, C: 1.3 nM, B: 0.51 nM)

----------
Molecular target: IRAK3-ePL (Homo sapiens)
Construct: expressed in transfected cells; host or cells: 293T CRBN OE/GSPT1 G575N KI cells, lentiviral transduction, puromycin selected
Assay: IRAK3-ePL overexpressing degradation assay (InCELL Hunter luminescence, dose response)
Assay type: cell-based
Settings: lowest percentage of target protein remaining following compound treatment
experimental endpoint: IRAK3 ePL degradation Ymin (%)

Cc1cc(-c2cnc(Nc3cnn([C@@H]4CCN(CCN5CCN(c6ccc(C7CCC(=O)NC7=O)cc6)C[C@H]5C)[C@H](C)C4)c3)c3nccn23)c(F)cc1F (stereo partly shown) :: 24

A = Cc1cc(-c2cnc(Nc3cnn(C4CCN(CCN5CCN(c6ccc(C7CCC(=O)NC7=O)cc6)C[C@@H]5C)CC4)c3)c3nccn23)c(F)cc1F (stereo partly shown)
B = Cc1cc(-c2cnc(Nc3cnn([C@H]4CCN(CCN5CCN(c6ccc(C7CCC(=O)NC7=O)cc6)C[C@@H]5C)[C@@H](C)C4)c3)c3nccn23)c(F)cc1F (stereo partly shown)
C = Cc1cccc(-c2cnc(Nc3cnn(C4CCN(CC(=O)N5CCN(c6ccc7c(c6)C(=O)N(C6CCC(=O)NC6=O)C7)CC5)CC4)c3)c3nccn23)c1 (stereo not shown)
**Q:** # ascending order, key=IRAK3 ePL degradation Ymin Give the labels in the order specified.
**A:** A, B, C

----------
Target: IRAK3-ePL (Homo sapiens)
Construct: expressed in transfected cells; host or cells: 293T CRBN OE/GSPT1 G575N KI cells, lentiviral transduction, puromycin selected
Assay: IRAK3-ePL overexpressing degradation assay (InCELL Hunter luminescence, dose response)
Type: cell-based
Details: read-out: IRAK3 ePL degradation EC50
experimental endpoint: DC50 (nM)

Cc1cc(-c2cnc(Nc3cnn(C4CCN(CC(=O)N5CCN(c6ccc7c(c6)CN(C6CCC(=O)NC6=O)C7=O)CC5)CC4)c3)c3nccn23)c(F)cc1F (stereo not drawn) [Compound 10] :: 19

A = Cc1cc(-c2cnc(Nc3cnn([C@H]4CC[C@H](CCN5CCN(c6ccc(C7CCC(=O)NC7=O)cc6)C[C@H]5C)CC4)c3)c3nccn23)c(F)cc1F (stereo partly drawn) [Compound 37]
B = Cc1ccc(-c2cnc(Nc3cnn(C4CCN(CCN5CCN(c6ccc(C7CCC(=O)NC7=O)cc6)CC5)CC4)c3)c3nccn23)cc1 (stereo not drawn) [Compound 78]
**Q:** // compare: A vs B , metric DC50, want the smaller # respond with the chosen item's label
**A:** A

I = Cc1cccc(-c2cnc(Nc3cnn(C4CCN(CC(=O)N5CCN(c6ccc(C7CCC(=O)NC7=O)cc6)CC5)CC4)c3)c3nccn23)c1 (stereo not drawn) [Compound 20]
II = Cc1cccc(-c2cnc(Nc3cnn([C@H]4CC[C@@H](CCN5CCN(c6ccc(C7CCC(=O)NC7=O)cc6)CC5)CC4)c3)c3nccn23)c1 (stereo partly drawn) [Compound 45]
III = Cc1cccc(-c2cnc(Nc3cnn([C@H]4CC[C@H](CCN5CCN(c6ccc(C7CCC(=O)NC7=O)cc6)CC5)CC4)c3)c3nccn23)c1 (stereo partly drawn) [Compound 64]
IV = O=C1CCC(c2ccc(N3CCN(CCN4CCC(n5cc(Nc6ncc(-c7cccc(F)c7)n7ccnc67)cn5)CC4)CC3)cc2)C(=O)N1 (stereo not drawn) [Compound 80]
**Q:** // sort entries: DC50, high to low Give your ranking as a list of the labels in the requested order.
**A:** IV, II, III, I
(IV: 26 nM, II: 7.2 nM, III: 4.2 nM, I: 0.77 nM)

P = Cc1cc(-c2cnc(Nc3cnn(C4CCN(CCN5CCN(c6cccc7c(C8CCC(=O)NC8=O)nn(C)c67)CC5)CC4)c3)c3nccn23)c(F)cc1F (stereo not drawn) [Compound 41]
Q = O=C1CCC(c2ccc(N3CCN(CCN4CCC(n5cc(Nc6ncc(-c7ccc(F)cc7)n7ccnc67)cn5)CC4)CC3)cc2)C(=O)N1 (stereo not drawn) [Compound 74]
R = Cc1cc(-c2cnc(Nc3cnn(C4CCN(CC(=O)N5CCN(c6ccc7c(c6)C(=O)N(C6CCC(=O)NC6=O)C7=O)CC5)CC4)c3)c3nccn23)c(F)cc1F (stereo not drawn) [Compound 6]
S = O=C1CCC(c2ccc(N3CCN(CCN4CCC(n5cc(Nc6ncc(-c7cc8c(cc7F)OCCN8)n7ccnc67)cn5)CC4)CC3)cc2)C(=O)N1 (stereo not drawn) [Compound 51]
**Q:** Highest DC50 first, then in falling order down to the smallest. Show the ranking through the labels, in the order asked for.
**A:** R, S, Q, P

A = O=C1CCC(c2ccc(N3CCN(CCN4CCC(n5cc(Nc6ncc(C7CC7)n7ccnc67)cn5)CC4)CC3)cc2)C(=O)N1 (stereo not drawn) [Compound 46]
B = Cc1cc(-c2cnc(Nc3cnn([C@H]4CC[C@H](CCN5CCN(c6ccc(C7CCC(=O)NC7=O)cc6)C[C@@H]5C)CC4)c3)c3nccn23)c(F)cc1F (stereo partly drawn) [Compound 57]
C = Cc1cccc(-c2cnc(Nc3cnn(C4CCN(CC(=O)N5CCN(c6ccc7c(c6)C(=O)N(C6CCC(=O)NC6=O)C7=O)CC5)CC4)c3)c3nccn23)c1 (stereo not drawn) [Compound 1]
D = Cc1cc(-c2cnc(Nc3cnn(C4CCN(CCN5CCN(c6ccc(C7CCC(=O)NC7=O)cc6Cl)CC5)CC4)c3)c3nccn23)c(F)cc1F (stereo not drawn) [Compound 43]
E = Cc1cc(-c2cnc(Nc3cnn(C4CCN(CC(=O)N5CCN(c6ccc7c(c6)C(=O)N(C6CCC(=O)NC6=O)C7)CC5)CC4)c3)c3nccn23)c(F)cc1F (stereo not drawn) [Compound 18]
**Q:** Give the ascending ranking of the items by reported DC50. Form entry: ranked labels (order as requested).
**A:** A, D, B, E, C
(A: 0.51 nM, D: 2.8 nM, B: 5.7 nM, E: 9.7 nM, C: 39 nM)

a = Cc1cc(-c2cnc(Nc3cnn(C4CCN(CC(=O)N5CCN(c6ccc(C7CCC(=O)NC7=O)cc6)CC5)CC4)c3)c3nccn23)c(F)cc1F (stereo not drawn) [Compound 17]
b = Cc1ccc(F)c(-c2cnc(Nc3cnn(C4CCN(CCN5CCN(c6ccc(C7CCC(=O)NC7=O)cc6)CC5)CC4)c3)c3nccn23)c1 (stereo not drawn) [Compound 36]
**Q:** Pick the one with the larger DC50: a vs b Record your answer as the label of the chosen record.
**A:** b

P = Cc1cccc(-c2cnc(Nc3cnn(C4CCN(CCN5CCN(c6ccc7c(c6)C(=O)N(C6CCC(=O)NC6=O)C7=O)CC5)CC4)c3)c3nccn23)c1 (stereo not drawn) [Compound 2]
Q = Cc1cc(-c2cnc(Nc3cnn([C@@H]4CCN(CCN5CCN(c6ccc(C7CCC(=O)NC7=O)cc6)C[C@H]5C)[C@H](C)C4)c3)c3nccn23)c(F)cc1F (stereo partly drawn) [Compound 29]
**Q:** Between P and Q , which one shows the smaller DC50 number? Reply with the label of the item you choose.
**A:** Q
(Q: 0.51 nM, P: 3 nM)
